# credit: patent US20110105724A1

Target: T1, human IL-8 (interleukin-8) (human, UniProt P10145 28-99, limits assumed)
T1 construct: also called recombinant human IL-8
T1 sequence (looked up): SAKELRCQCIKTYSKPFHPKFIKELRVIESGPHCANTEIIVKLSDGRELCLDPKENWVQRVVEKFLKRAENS
Assay: SPR (Biacore T100, 25 C), antibody captured on anti-human IgG, IL-8 as analyte, 1:1 model, Run 2
readout.type: kon (M⁻¹ s⁻¹)
Please respond with the number in M⁻¹ s⁻¹ and leave the unit unwritten.

Solved entries (count: 3):
binder="humanized antibody A0L1 (antibody, human IgG1, kappa, V domains shown, Humanized 1C1.5E5, human IgG1/kappa) VH: QVQLVQSGAEVKKPGASVKVSCKASGYTFTSYWMHWVRQAPGQGLEWMGEIDPSDSNTNYNQKFKGRVTMTRDTSISTAYMELSRLRSDDTAVYYCARELLHAVYWGQGTLVTVSS VL: DIQMTQSPSSLSASVGDRVTITCTASQDIHKYISWYQQKPGKAPKLLIHYTSTLQPGVPSRFSGSGSGTDFTFTISSLQPEDIATYYCLQYDNLWTFGQGTKVEIKR" units_label="M⁻¹ s⁻¹" assay_value=1.56e+07
binder="humanized antibody A1L0 (antibody, human IgG1, kappa, V domains shown, Humanized 1C1.5E5, human IgG1/kappa; also called AIL0) VH: QVQLVQSGAEVKKPGASVKVSCKASGYTFTSYWMHWVRQAPGQGLEWMGEIDPSDSNTNYNQKFKGKVTMTRDTSISTAYMELSRLRSDDTAVYYCARELLHAVYWGQGTLVTVSS VL: DIQMTQSPSSLSASVGDRVTITCTASQDIHKYISWYQQKPGKAPKLLIYDTSTLQPGVPSRFSGSGSGTDFTFTISSLQPEDIATYYCLQYDNLWTFGQGTKVEIKR" units_label="M⁻¹ s⁻¹" assay_value=7.87e+06
binder="chimeric antibody HcLc made from murine 1C1.5E5 (antibody, human IgG1, kappa, V domains shown, Murine variable regions on human IgG1 and human kappa constant regions; also called chimera) VH: QVQLQQPGVELVMPGASVKLSCKASGYTFTSYWMHWVKQRPGQGLEWIGEIDPSDSNTNYNQKFKGKATLTLDKSSSTAYMQLTSLTSEDSAVYYCARELLHAVYWGQGTLVTVSS VL: DIQMTQSPSSLSASLGGKVTITCTASQDIHKYISWFQHKPGKGPRLLIHYTSTLQPGIPSRFSGSGSGRDYSFSISNLEPEDVATYYCLQYDNLWTFGGGTKLDIKR" units_label="M⁻¹ s⁻¹" assay_value=2.68e+07

Input line: Would you kindly share the measured kon for humanized antibody A0L0 (antibody, human IgG1, kappa, V domains shown, Humanized 1C1.5E5, human IgG1/kappa) VH: QVQLVQSGAEVKKPGASVKVSCKASGYTFTSYWMHWVRQAPGQGLEWMGEIDPSDSNTNYNQKFKGRVTMTRDTSISTAYMELSRLRSDDTAVYYCARELLHAVYWGQGTLVTVSS VL: DIQMTQSPSSLSASVGDRVTITCTASQDIHKYISWYQQKPGKAPKLLIYDTSTLQPGVPSRFSGSGSGTDFTFTISSLQPEDIATYYCLQYDNLWTFGQGTKVEIKR ?
Output line: 9.5e+06
